- System: Caco-2 cells (clone C2BBe1)
- run-description: CACO-2 permeability
- Format: in vitro ADME
- Set-up: unit not given here
- measurement-parameters: apical to basolateral; donor pH 6.5, receiver pH 7.4
Field: DM Caco2 A to B. Provide a value for each of the compounds that follow.
Output spec: single numeric token, no unit.

Bench note, Caco-2 cells (clone C2BBe1): `CC[C@H](C)OC(=O)OC[C@H]1O[C@@](C#N)(c2ccc3c(N)ncnn23)[C@H](O)[C@@H]1O` , DM Caco2 A to B reads 0.9

Tested on Caco-2 cells (clone C2BBe1): `C[C@H](OC(=O)OC[C@H]1O[C@@](C#N)(c2ccc3c(N)ncnn23)[C@H](O)[C@@H]1O)c1ccccc1` . Observed DM Caco2 A to B: 2.72

Record for `CC(C)OC(=O)OC[C@H]1O[C@@](C#N)(c2ccc3c(N)ncnn23)[C@H](O)[C@@H]1O` under target or system Caco-2 cells (clone C2BBe1): DM Caco2 A to B reported as 0.545

Per the reported Caco-2 cells (clone C2BBe1) data, `CC(C)OC(=O)OC[C@H]1O[C@@](C#N)(c2ccc3c(N)ncnn23)[C@H](O)[C@@H]1OC(=O)CCCCCCC(=O)O` has DM Caco2 A to B of 0.12

// assay Caco-2 cells (clone C2BBe1), entry `CC(C)OC(=O)Nc1ncnn2c([C@]3(C#N)O[C@H](COC(=O)OC(C)(C)C)[C@@H](O)[C@H]3O)ccc12` , DM Caco2 A to B value = 1.18

Lab note: compound `N#CC1(COC(=O)OC[C@H]2O[C@@](C#N)(c3ccc4c(N)ncnn34)[C@H](O)[C@@H]2O)CC1` tested on Caco-2 cells (clone C2BBe1); recorded DM Caco2 A to B was 0.07

Summary line: `CC(C)OC(=O)[C@H]([C@@H](C)OC(=O)OC[C@H]1O[C@@](C#N)(c2ccc3c(N)ncnn23)[C@H](O)[C@@H]1O)N(C)C` , Caco-2 cells (clone C2BBe1), reported DM Caco2 A to B = 0.2

====

Would you kindly list Stability at pH2, 12 hr for each of these compounds?
- run-description: Stability in pH2 buffered solution
- Type: physicochemical
- measurement-parameters: pH2 phosphate buffer, 40° C., 12 hr
- Description: Example N: Stability in p112 and p117 Buffered Solutions The aqueous stability of compounds over a time of 24 hours at 40° C. was assessed. Stability was determined in 50 mM phosphate buffered solutions at both pH2 and pH7, with 150 mM NaCl (to achieve isotonicity). 3-5 mg of solid compounds were added to 7 mL scintillation vials. […] Concentration timepoints were measured at 0, 3, 6, 9, and 12 hrs. After 24 hrs, samples in the 40° C. oven were removed and analyzed by UPLC. […]
The answer is to be given in % AN; state only the numeric part.

Consider `CC(C)OC(=O)OC[C@H]1O[C@@](C#N)(c2ccc3c(N)ncnn23)[C@H](OC(=O)C(C)C)[C@@H]1OC(=O)C(C)C` . Its measured Stability at pH2, 12 hr is 98.9

The value of Stability at pH2, 12 hr measured for the compound `COC(=O)OC[C@H]1O[C@@](C#N)(c2ccc3c(N)ncnn23)[C@H](OC(C)=O)[C@@H]1OC(C)=O` turned out to be 93.8

The value of Stability at pH2, 12 hr measured for the compound `CCOC(=O)OC[C@H]1O[C@@](C#N)(c2ccc3c(N)ncnn23)[C@H](OC(C)=O)[C@@H]1OC(C)=O` turned out to be 94.0

Input `CC(C)OC(=O)OC[C@H]1O[C@@](C#N)(c2ccc3c(N)ncnn23)[C@H](O)[C@@H]1O` . Output Stability at pH2, 12 hr: 98.5
